Value source: ChEMBL document CHEMBL1151733

Molecular target: Prostaglandin E synthase (Homo sapiens) (UniProt O14684)
Sequence (whole entry): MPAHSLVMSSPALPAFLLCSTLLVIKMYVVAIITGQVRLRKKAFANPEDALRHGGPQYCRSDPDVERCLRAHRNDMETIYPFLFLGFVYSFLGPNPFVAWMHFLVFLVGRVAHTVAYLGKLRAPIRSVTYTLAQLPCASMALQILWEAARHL
Assay: Inhibition of PGES1 in human A549 cell microsome assessed as PGE2 formation at 10 uM by cell-free assay relative to control
Design: scale not given: the % may be the effect or the level left
Activity calls are given as the source filed them. The rule behind the calls is not given here.
PROPERTY_LABEL: Activity

Example cases with answers are listed next.
[[record]]
molecule = "CCCCCCC(Sc1nc(Cl)cc(Nc2cc(C)c(-c3ccccc3)cc2OC)n1)C(=O)O (stereo not given)"
target = "Prostaglandin E synthase (Homo sapiens) (UniProt O14684)"
value_reported = "24.9%"

[[record]]
molecule = "Cc1cccc(Nc2cc(Cl)nc(SC(C)(C)C(=O)O)n2)c1C"
target = "Prostaglandin E synthase (Homo sapiens) (UniProt O14684)"
value_reported = "83.8%"

[[record]]
molecule = "CCCCCCC(Sc1nc(Cl)cc(Nc2ccc3ncccc3c2)n1)C(=O)O (stereo not given)"
target = "Prostaglandin E synthase (Homo sapiens) (UniProt O14684)"
value_reported = "59%"

[[record]]
molecule = "CCCCCCC(Sc1nc(Cl)cc(Oc2ccc3ncccc3c2)n1)C(=O)O (stereo not given)"
target = "Prostaglandin E synthase (Homo sapiens) (UniProt O14684)"
value_reported = "67.4%"

[[record]]
molecule = "O=C(O)CSc1nc(OCCc2ccccc2)cc(OCCc2ccccc2)n1"
target = "Prostaglandin E synthase (Homo sapiens) (UniProt O14684)"
value_reported = "66.4%"


Value sought for every listed molecule: Activity.
1. CCCCCCC(Sc1nc(Cl)cc(NCCOc2ccccc2)n1)C(=O)OCC (stereo not given)
2. CCCCCCC(Sc1nc(Cl)cc(Nc2cccc(C)c2C)n1)C(=O)OCC (stereo not given)

80.7%
inactive

Value sought for every listed molecule: Activity.
1. CCCCC(Sc1nc(Cl)cc(Nc2cccc(C)c2C)n1)C(=O)O (stereo not given)
2. CCCCCCC(Sc1nc(Cl)cc(Nc2ccc3ncccc3c2)n1)C(=O)OCC (stereo not given)
3. CCCCCC[C@H](Sc1nc(Cl)cc(Nc2ccc(-c3ccc(C#N)cc3)cc2)n1)C(=O)O

["inactive", "39.1%", "23%"]
